test: Nuclear factor erythroid 2-related factor 2/antioxidant responsive element (Nrf2/ARE) small molecule agonists: luciferase reporter gene qHTS assay in human keratinocytes (AID 1919969); also: nearly all actives have a fitted effect of over 35% in size; also: potency is read from the fitted curve at half-maximal effect
testConditions: KeratinoSens HaCaT ARE-luciferase, luminescence, 24 h; series mostly up to 92.4 µM
Records with an inconclusive call do not appear. Active and inactive are the calls of the source. Calls follow the shape of the full dose curve.
observationType: Potency

For orientation, consider the following solved cases.
C1CCC2(CCCCO2)OC1 : inactive
CCOc1ccc(O)cc1 : inactive
CCCCOCC(C)OCC(C)O (stereo not drawn) : inactive
C/C=C1/C(=O)C[C@H]2[C@@H]3CCC4=CC(=O)CC[C@]4(C)[C@H]3CC[C@]12C : 68.4 µM (active)
CCN(CC)CCOc1ccc2c(c1)C(=O)c1cc(OCCN(CC)CC)ccc1-2 : 33.5 µM (active)
C=CC(=O)N1CCOCC1 : inactive

From here, focus on the item given below.
Please look up its Potency: `OC/C(Br)=C(\Br)CO`
inactive

----------
test: Nuclear factor erythroid 2-related factor 2/antioxidant responsive element (Nrf2/ARE) small molecule agonists: luciferase reporter gene qHTS assay in human keratinocytes (AID 1919969); also: nearly all actives have a fitted effect of over 35% in size
testConditions: KeratinoSens HaCaT ARE-luciferase, luminescence, 24 h; series mostly up to 92.4 µM
Inconclusive results are not listed. Calls of active or inactive are those of the source. Calls come from the whole dose curve. Bridge positions count the residues as written; N and C are the ends. Square brackets hold non-standard residues; d marks the D form. Peptide text beside a SMILES is read from it. hArg = N=C(N)NCCCC[C@H](N)C(=O)O; Mpa = O=C(O)CCS
Result category, one only: label 1 (active), label 0 (inactive)

These recorded examples may help you get a feel for the data.
N#Cc1ccc(C(c2ccc(C#N)cc2)n2cncn2)cc1 : label 0
O=C1C=CC(=O)N1c1ccccc1 : label 1
CCCCCCCCCCCCCC(=O)OC : label 0
C=CCCC(=O)O : label 0
OCCN1CCOCC1 : label 0

Assay result, entry CC(CCO)CCCC(C)(C)O (stereo unspecified) — outcome?
label 0

Assay result, entry `CCCCN(CCCC)C(=S)SSC(=S)N(CCCC)CCCC` — outcome?
label 1

Assay result, entry `Cc1c(NC(=O)c2cccnc2)c(=O)n(-c2ccccc2)n1C` — outcome?
label 0

Assay result, entry `CC(C)c1cccc(C(C)C)c1N1C(=O)c2ccc(O)cc2C1=O` — outcome?
label 0

Assay result, entry `CC/C=C\C/C=C\C/C=C\CCCCCCCC(=O)OC` — outcome?
label 1

Assay result, entry NC(=O)[C@@H]1CSSCCC(=O)N[C@@H](CCCCN=C(N)N)C(=O)NCC(=O)N[C@@H](CC(=O)O)C(=O)N[C@@H](Cc2c[nH]c3ccccc23)C(=O)N2CCC[C@H]2C(=O)N1 ([Mpa][hArg]GDWPC-NH2; disulfide 1-7) — outcome?
label 0

----------
measurementTarget: Beta-2 adrenergic receptor (Homo sapiens) (UniProt P07550)
Sequence (P07550 whole entry, looked up): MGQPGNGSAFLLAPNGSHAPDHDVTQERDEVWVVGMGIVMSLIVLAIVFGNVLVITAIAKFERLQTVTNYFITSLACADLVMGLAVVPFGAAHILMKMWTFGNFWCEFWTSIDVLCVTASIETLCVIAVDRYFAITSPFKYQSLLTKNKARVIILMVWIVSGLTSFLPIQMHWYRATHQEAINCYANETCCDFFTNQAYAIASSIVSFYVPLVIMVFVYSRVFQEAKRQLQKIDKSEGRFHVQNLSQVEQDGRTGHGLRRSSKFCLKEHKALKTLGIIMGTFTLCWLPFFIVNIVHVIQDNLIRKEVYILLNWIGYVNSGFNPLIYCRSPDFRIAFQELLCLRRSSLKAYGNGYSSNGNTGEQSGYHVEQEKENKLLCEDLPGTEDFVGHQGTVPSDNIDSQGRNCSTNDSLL
test: Adrenergic beta2 receptor (ADRB2) small molecule antagonists, cell-based qHTS assay (AID 1963592); also: % is scaled to controls: 0 for no effect and ±100 for the full control effect; nearly all actives have a fitted effect of over 50% in size
testConditions: CHO-ADRB2 cells, isoproterenol-stimulated cAMP HTRF ratio, 0.5 h; series mostly up to 92.4 µM
Results filed as inconclusive are left out. Activity calls are given as the source filed them. Calls follow the shape of the full dose curve.
Result category, one only: active, inactive

O=c1[nH]c2ccc(S(=O)CCN3CCC(Cc4ccc(F)cc4)CC3)cc2o1 (stereo not given) : inactive

# next compound below
Assay result, entry `CN(C)C(=N)N=C(N)N` — outcome?
inactive

----------
This section presents compounds with their documented Potency values.
measurementTarget: D(2) dopamine receptor (Homo sapiens)
test: Dopamine D2 receptor (DRD2) small molecule agonists, cell-based qHTS assay (AID 1963594); also: potency is read from the fitted curve at half-maximal effect; nearly all actives have a fitted effect of over 35% in size
testConditions: HEK293-DRD2 cAMP HTRF, agonist mode, 30 min; series mostly up to 92.4 µM
Results filed as inconclusive are left out. The source made the active and inactive calls. The call rests on the fitted dose curve.

Please look up its Potency: CC1(COc2ccc(CC3SC(=O)NC3=O)cc2)CCCCC1 (stereo not drawn)
12.8 µM (active)

----------
measurementTarget: D(2) dopamine receptor (Homo sapiens) (UniProt P14416)
Sequence (P14416 whole entry, looked up): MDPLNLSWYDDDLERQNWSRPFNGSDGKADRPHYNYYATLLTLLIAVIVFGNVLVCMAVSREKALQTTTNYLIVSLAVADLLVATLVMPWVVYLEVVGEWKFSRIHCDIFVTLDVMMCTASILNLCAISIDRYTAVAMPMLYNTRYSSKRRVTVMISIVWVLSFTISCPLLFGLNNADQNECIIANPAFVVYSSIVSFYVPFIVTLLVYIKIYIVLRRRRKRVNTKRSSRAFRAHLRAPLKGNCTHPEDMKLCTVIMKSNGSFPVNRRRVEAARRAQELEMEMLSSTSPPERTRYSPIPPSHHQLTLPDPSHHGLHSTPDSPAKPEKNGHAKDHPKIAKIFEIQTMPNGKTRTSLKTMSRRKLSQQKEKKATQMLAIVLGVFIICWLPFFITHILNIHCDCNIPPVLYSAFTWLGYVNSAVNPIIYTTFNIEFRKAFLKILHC
test: Dopamine D2 receptor (DRD2) small molecule antagonists, cell-based qHTS assay (AID 1963595); also: % is scaled to controls: 0 for no effect and ±100 for the full control effect
testConditions: HEK293-DRD2 cAMP HTRF antagonist mode; series mostly up to 92.4 µM
Inconclusive results are not listed. Activity calls are given as the source filed them. Calls follow the shape of the dose curve; as a rule, active = well fitted inhibition curve with a large enough effect in the signal ratio in the repeat runs, with a control signal flat; inconclusive = weak or mixed curves, or effect the other way; inactive = flat fitted curve, though single readings scatter; the % refers to the signal ratio.
observationType: outcome

Oc1ccc2c(c1)Cc1ccccc1-2 : inactive
CC(=O)O[C@@]12CO[C@@H]1C[C@H](O)[C@@]1(C)C(=O)[C@H](O)C3=C(C)[C@@H](OC(=O)[C@H](O)[C@@H](NC(=O)OC(C)(C)C)c4ccccc4)C[C@@](O)([C@@H](OC(=O)c4ccccc4)[C@H]21)C3(C)C : inactive
CC(=O)c1ccc([N+](=O)[O-])cc1 : inactive
O=C(O)CC(=O)C(=O)O : inactive
Cc1nc([N+](=O)[O-])cn1-c1ccc([N+](=O)[O-])cc1 : inactive
CCN(CCC#N)c1ccc(N=Nc2c(Cl)cc([N+](=O)[O-])cc2Cl)cc1 : inactive

Please look up its outcome: `O=C(O)Cn1cnnn1`
inactive

Please look up its outcome: `CC[N+](C)(CC)CC`
inactive

Please look up its outcome: `COc1cccc(N(C)C(=S)Oc2ccc3c(c2)CCCC3)n1`
inactive

Please look up its outcome: `C[C@H](CCC(=O)O)[C@H]1CC[C@H]2[C@@H]3C(=O)C[C@@H]4CC(=O)CC[C@]4(C)[C@H]3CC(=O)[C@]12C`
inactive

----------
measurementTarget: 5-hydroxytryptamine receptor 2A (Homo sapiens) (UniProt P28223)
Sequence (P28223 whole entry, looked up): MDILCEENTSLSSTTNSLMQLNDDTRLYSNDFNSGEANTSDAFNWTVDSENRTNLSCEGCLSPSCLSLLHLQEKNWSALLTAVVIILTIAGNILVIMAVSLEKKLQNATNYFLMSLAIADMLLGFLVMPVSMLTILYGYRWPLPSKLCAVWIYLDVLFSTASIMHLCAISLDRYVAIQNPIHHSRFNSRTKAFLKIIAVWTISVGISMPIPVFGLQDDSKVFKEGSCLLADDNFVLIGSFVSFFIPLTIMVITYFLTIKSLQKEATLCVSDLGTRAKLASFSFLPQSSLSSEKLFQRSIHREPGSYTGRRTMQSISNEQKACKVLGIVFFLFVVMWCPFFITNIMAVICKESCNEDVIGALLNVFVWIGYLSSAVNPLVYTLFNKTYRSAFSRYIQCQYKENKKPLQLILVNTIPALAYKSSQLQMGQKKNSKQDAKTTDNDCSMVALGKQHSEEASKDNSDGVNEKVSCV
test: 5-hydroxytryptamine receptor 2A (HTR2A) small molecule antagonists, cell-based qHTS assay (AID 1963586); also: nearly all actives have a fitted effect of over 45% in size
testConditions: HTR2A-CHO cells, DOI-induced calcium flux, fluorescence; series mostly up to 61.5 µM
Results filed as inconclusive are left out. Active and inactive are the calls of the source. Calls come from the whole dose curve.
Result category, one only: active, inactive

These recorded examples may help you get a feel for the data.
C[C@@H]1CC[C@H]2C(C)(C)[C@H]3C[C@@]12CC[C@@]3(C)O : inactive
c1cnc(N2CCN(Cc3ccc4c(c3)OCO4)CC2)nc1 : inactive
CCOC(=O)COC(=O)c1cc(Oc2ccc(C(F)(F)F)cc2Cl)ccc1[N+](=O)[O-] : inactive
Cc1ccc(C=O)cc1C : inactive
C=Cc1c(C)c2cc3[nH]c(cc4nc(cc5nc(cc1[nH]2)C(C)=C5CCC(=O)O)C(CCC(=O)O)=C4C)c(C)c3C=C : inactive
COc1ccc2c(c1)c(CC(=O)OC/C=C(\C)CC/C=C(\C)CCC=C(C)C)c(C)n2C(=O)c1ccc(Cl)cc1 : inactive
Cc1cccc(Nc2ccccc2)c1 : inactive
CCCCCCCC/C=C\CCCCCCCC(=O)N(CCO)CCO : inactive

Assay result, entry `Cc1c(C(=O)O)cccc1[N+](=O)[O-]` — outcome?
inactive

Assay result, entry CCCCCCC(C)OC(=O)COc1nc(F)c(Cl)c(N)c1Cl (configuration not stated) — outcome?
inactive

Assay result, entry COc1cccc(CCc2ccccc2OCC(CN(C)C)OC(=O)CCC(=O)O)c1 (configuration not stated) — outcome?
active

Assay result, entry `CC(C)OC(=O)c1cc(C(=O)OC(C)C)cc([N+](=O)[O-])c1` — outcome?
inactive

Assay result, entry `Oc1c(I)cc(Cl)c2cccnc12` — outcome?
inactive

Assay result, entry `CCc1c(C(=O)NN2CCCCC2)nn(-c2ccc(Cl)cc2Cl)c1-c1ccc(Br)cc1` — outcome?
inactive

Assay result, entry `Clc1nc2ccccc2nc1Cl` — outcome?
inactive

Assay result, entry `O=[N+]([O-])C1(Br)COCOC1` — outcome?
inactive

Assay result, entry `O=C(Nc1ccccc1)c1cc(Cl)ccc1O` — outcome?
inactive

----------
test: p53 small molecule agonists, cell-based qHTS assay with rat liver microsomes (AID 1963578); also: % is scaled to controls: 0 for no effect and ±100 for the full control effect
testConditions: HCT-116 p53RE-bla, beta-lactamase ratio, 16 h; series mostly up to 66 µM
Records with an inconclusive call do not appear. The source made the active and inactive calls. Calls follow the shape of the full dose curve.
observationType: activation

For orientation, consider the following solved cases.
c1ccc2sc(SSc3nc4ccccc4s3)nc2c1 : -0.548% [at 13.6 µM] (inactive)
CN(C)C(=O)Oc1cccc([N+](C)(C)C)c1 : inactive
CCCCNC(=O)NCCCC : inactive
CN1CCN2c3ccccc3Cc3ccccc3C2C1 (stereo unspecified) : inactive

Please look up its activation: `COCCOc1cc2cc(C(=O)NC3CCN(C(C)C)CC3)n(CC(=O)Nc3ccc(Cl)cn3)c2cn1`
inactive

Please look up its activation: `O=C(O)CN1C(=O)c2cccc3cccc(c23)C1=O`
inactive

----------
measurementTarget: Beta-2 adrenergic receptor (Homo sapiens) (UniProt P07550)
test: Adrenergic beta2 receptor (ADRB2) small molecule antagonists, cell-based qHTS assay (AID 1963592); also: % is scaled to controls: 0 for no effect and ±100 for the full control effect; nearly all actives have a fitted effect of over 50% in size
testConditions: CHO-ADRB2 cells, isoproterenol-stimulated cAMP HTRF ratio, 0.5 h; series mostly up to 92.4 µM
Records with an inconclusive call do not appear. Activity calls are given as the source filed them. Calls follow the shape of the full dose curve.
Result category, one only: YES for active, NO for inactive

CC[C@H]1O[C@]2(CC[C@@H]1C)C[C@@H]1C[C@@H](C/C=C(\C)C[C@@H](C)/C=C/C=C3\CO[C@@H]4[C@H](O)C(C)=C[C@@H](C(=O)O1)[C@]34O)O2 : NO

Assay result, entry `CCC1(c2cnc[nH]2)Cc2ccccc2C1` — outcome?
NO

Assay result, entry `COC1=C(OC)C(=O)C(CCCCCCCCCCO)=C(C)C1=O` — outcome?
NO

Assay result, entry `CC(C)COC(=O)C(C)C` — outcome?
NO
